subject of test: GLIS2
procedure text: pooled miR-30 sensor sort-seq; sequence = guide strand; note: reference of the scale not given here
condition info: shRNA
Outcome: met for sensor-assay potency score (higher = more potent) of at least -0.4; not met for anything lower.

>>> cat("TTTCACAGAAGAGTTTCCGTTC")
"met"
>>> cat("TAGTCATTAGCTTATCTCTTTT")
"not met"
>>> cat("TAGAAAGGCACTTAGAACCTGT")
"met"
>>> cat("ATAGTCATTAGCTTATCTCTTT")
"met"
>>> cat("TTTTTTTAAAACTCTATGCTAA")
"not met"
>>> cat("TAAAACTCTATGCTAACAGCAA")
"not met"
>>> cat("ATCGTTGACATGGTCCACCAGG")
"not met"
>>> cat("TTCTCGTTGGTGTGTGTGCGGA")
"not met"
